Test system: K-562 leukemia
TEST: NCI tumour cell line growth inhibition, 48 h
Give measured TGI for each item. Keep answers brief.

(Q) Read off the recorded TGI for O=C1CC2CC3OC3[C@H]3c4cc5c(cc4C(=O)N1C23)OCO5 (some centres undefined)
(A) > 100 µM

(Q) Read off the recorded TGI for CCOC(=O)c1nnsc1N/N=C\c1ccc([N+](=O)[O-])cc1
(A) > 100 µM

(Q) Read off the recorded TGI for CCOc1ccc2[nH]c3c(C)c4ccncc4c(C)c3c2c1
(A) > 100 µM

(Q) Read off the recorded TGI for COc1ccc(-c2ccncc2)cc1C(N)=O
(A) > 25 µM

---

System: SR leukemia
TEST: NCI tumour cell line growth inhibition, 48 h
Give measured log10 of TGI for each item. Keep answers brief.
Give log10 of TGI, with TGI taken in µM.

(Q) Read off the recorded log10 of TGI for C=CCn1c(C)nc2ccc(Nc3nc(Nc4ccc(F)cc4)nc4ccccc34)cc21
(A) 0.77

(Q) Read off the recorded log10 of TGI for c1ccc2c(c1)c1c(n2CCOCCN2CCCC2)CCCC1
(A) 1.55

(Q) Read off the recorded log10 of TGI for COc1ccc(/C=C/C(=O)/C=C/c2cc3ccccc3[nH]c2=O)cc1
(A) 0.94

(Q) Read off the recorded log10 of TGI for O=C(O)c1ccc(CI)cc1
(A) 1.77

(Q) Read off the recorded log10 of TGI for CN1CN(c2ccccc2)C2(CCN(CC(C)(c3ccc(F)cc3)C3OCCCO3)CC2)C1=O (centres undefined)
(A) 1.48

(Q) Read off the recorded log10 of TGI for CN(C)CCNc1ccc(CO)c2sc3ccc(O)cc3c(=O)c12
(A) -0.11
